- Tested on: MDA-MB-435
- PROCEDURE_DETAILS: NCI tumour cell line growth inhibition, 48 h
VALUE_TYPE: TGI

Below, each entry is followed by its recorded TGI result.
compound=O=c1oc2ccccc2cc1-c1nnc(-c2ccccc2)s1 subject_of_test=MDA-MB-435 value_type=TGI endpoint_value="12.9 µM"
compound="C[C@@H]1C[C@@H](O)[C@@]2(O)C13CC(=O)OC(C3)[C@@H](C)[C@@]2(C)CO (some centres undefined)" subject_of_test=MDA-MB-435 value_type=TGI endpoint_value="> 100 µM"
compound=CCC(CC)C(=O)OC[n+]1cccc(-c2c(COC(=O)NC(C)C)c(COC(=O)NC(C)C)c3n2CCC3)c1 subject_of_test=MDA-MB-435 value_type=TGI endpoint_value="> 100 µM"

Now take the following compound into account.
-- ask Name the reported TGI value associated with the compound C=C(C)[C@@H]1CC[C@@H](C)[C@](O)([C@@H]2C[C@@H]([C@H](COC(=O)c3ccccc3)OC(=O)c3ccccc3)OC2=O)C1
-- reply > 100 µM
